study.target: IgG
experimental.protocol: IgG SPR binding
measurement.conditions: Table 3, read-out: IgG SPR Binding KD
pKd: −log10 of the molar value.
Reported pKd is given for each of the following compounds.
quantity: pKd

smiles.structure	study.target	quantity	observed.measurement
CC(C)C[C@@H]1NC(=O)[C@H](Cc2cnc[nH]2)NC(=O)[C@H](Cc2c[nH]c3ccccc23)NC(=O)[C@H](C)NC(=O)[C@@H]2CSSC[C@H](NC(=O)[C@H](Cc3c[nH]c4ccccc34)NC(=O)[C@H](C(C)C)NC(=O)[C@H](CC(C)C)NC(=O)[C@H](CCC(=O)O)NC(=O)CNC1=O)C(=O)N[C@@H]([C@@H](C)O)C(=O)N1CCC[C@@H]1C(=O)N1C[C@H](NC(=O)c3ccc(N4CCC(CN5CCN(C[C@H]6OC[C@H](Nc7nc(C(F)(F)F)ccc7F)[C@@H](O)[C@H]6O)CC5)CC4)cc3)C[C@H]1C(=O)N[C@@H](CC(=O)O)C(=O)N2	IgG	pKd	> 7.00
CC(C)C[C@@H]1NC(=O)[C@H](Cc2cnc[nH]2)NC(=O)[C@H](Cc2c[nH]c3ccccc23)NC(=O)[C@H](C)NC(=O)[C@@H]2CSSC[C@H](NC(=O)[C@H](Cc3c[nH]c4ccccc34)NC(=O)[C@H](C(C)C)NC(=O)[C@H](CC(C)C)NC(=O)[C@H](CCC(=O)O)NC(=O)CNC1=O)C(=O)N[C@@H]([C@@H](C)O)C(=O)N1CCC[C@@H]1C(=O)N1C[C@H](NC(=O)c3ccc(N4CCC(CN5CCN(C[C@H]6OC[C@H](Nc7cccc(C(F)(F)F)n7)[C@@H](O)[C@H]6O)CC5)CC4)cc3)C[C@H]1C(=O)N[C@@H](CC(=O)O)C(=O)N2	IgG	pKd	> 7.00
CC(C)C[C@@H]1NC(=O)[C@H](Cc2cnc[nH]2)NC(=O)[C@H](Cc2c[nH]c3ccccc23)NC(=O)[C@H](C)NC(=O)[C@@H]2CSSC[C@H](NC(=O)[C@H](Cc3c[nH]c4ccccc34)NC(=O)[C@H](C(C)C)NC(=O)[C@H](CC(C)C)NC(=O)[C@H](CCC(=O)O)NC(=O)CNC1=O)C(=O)N[C@@H]([C@@H](C)O)C(=O)N1CCC[C@@H]1C(=O)N1C[C@H](NC(=O)COCCOCC(=O)NC[C@H]3OC[C@H](Nc4nccc(C(F)(F)F)n4)[C@@H](O)[C@H]3O)C[C@H]1C(=O)N[C@@H](CC(=O)O)C(=O)N2	IgG	pKd	> 7.00
CC(C)C[C@@H]1NC(=O)[C@H](Cc2cnc[nH]2)NC(=O)[C@H](Cc2c[nH]c3ccccc23)NC(=O)[C@H](C)NC(=O)[C@@H]2CSSC[C@H](NC(=O)[C@H](Cc3c[nH]c4ccccc34)NC(=O)[C@H](C(C)C)NC(=O)[C@H](CC(C)C)NC(=O)[C@H](CCC(=O)O)NC(=O)CNC1=O)C(=O)N[C@@H]([C@@H](C)O)C(=O)N1CCC[C@@H]1C(=O)N1C[C@@H](NC(=O)COCCOCC(=O)NC[C@H]3OC[C@H](Nc4nccc(C(F)(F)F)n4)[C@@H](O)[C@H]3O)C[C@H]1C(=O)N[C@@H](CC(=O)O)C(=O)N2	IgG	pKd	> 7.00
CC(C)C[C@@H]1NC(=O)[C@H](Cc2cnc[nH]2)NC(=O)[C@H](Cc2c[nH]c3ccccc23)NC(=O)[C@H](C)NC(=O)[C@@H]2CSSC[C@H](NC(=O)[C@H](Cc3c[nH]c4ccccc34)NC(=O)[C@H](C(C)C)NC(=O)[C@H](CC(C)C)NC(=O)[C@H](CCC(=O)O)NC(=O)CNC1=O)C(=O)N[C@@H]([C@@H](C)O)C(=O)N1CCC[C@@H]1C(=O)N1C[C@@H](NC(=O)c3ccc(N4CCC(CN5CCN(C[C@H]6OC[C@H](Nc7nc(C(F)(F)F)ccc7F)[C@@H](O)[C@H]6O)CC5)CC4)cc3)C[C@H]1C(=O)N[C@@H](CC(=O)O)C(=O)N2	IgG	pKd	> 7.00
CC(C)C[C@@H]1NC(=O)[C@H](Cc2cnc[nH]2)NC(=O)[C@H](Cc2c[nH]c3ccccc23)NC(=O)[C@H](C)NC(=O)[C@@H]2CSSC[C@H](NC(=O)[C@H](Cc3c[nH]c4ccccc34)NC(=O)[C@H](C(C)C)NC(=O)[C@H](CC(C)C)NC(=O)[C@H](CCC(=O)O)NC(=O)CNC1=O)C(=O)N[C@@H]([C@@H](C)O)C(=O)N1CCC[C@@H]1C(=O)N1C[C@H](NC(=O)c3ccc(N4CCC(CN5CCN(C[C@H]6OC[C@H](Nc7ccnc(C(F)(F)F)n7)[C@@H](O)[C@H]6O)CC5)CC4)cc3)C[C@H]1C(=O)N[C@@H](CC(=O)O)C(=O)N2	IgG	pKd	> 7.00
CC(C)C[C@@H]1NC(=O)[C@H](Cc2cnc[nH]2)NC(=O)[C@H](Cc2c[nH]c3ccccc23)NC(=O)[C@H](C)NC(=O)[C@@H]2CSSC[C@H](NC(=O)[C@H](Cc3c[nH]c4ccccc34)NC(=O)[C@H](C(C)C)NC(=O)[C@H](CC(C)C)NC(=O)[C@H](CCC(=O)O)NC(=O)CNC1=O)C(=O)N[C@@H]([C@@H](C)O)C(=O)N1CCC[C@@H]1C(=O)N1C[C@@H](NC(=O)c3ccc(N4CCC(CN5CCN(C[C@H]6OC[C@H](Nc7cccc(C(F)(F)F)n7)[C@@H](O)[C@H]6O)CC5)CC4)cc3)C[C@H]1C(=O)N[C@@H](CC(=O)O)C(=O)N2	IgG	pKd	> 7.00

----------
study.target: IgG
experimental.protocol: IgG SPR binding
measurement.conditions: Table 3, read-out: IgG SPR Binding KD
pKd: −log10 of the molar value.
quantity: pKd

smiles.structure	quantity	observed.measurement
CC(C)C[C@@H]1NC(=O)[C@H](Cc2cnc[nH]2)NC(=O)[C@H](Cc2c[nH]c3ccccc23)NC(=O)[C@H](C)NC(=O)[C@@H]2CSSC[C@H](NC(=O)[C@H](Cc3c[nH]c4ccccc34)NC(=O)[C@H](C(C)C)NC(=O)[C@H](CC(C)C)NC(=O)[C@H](CCC(=O)O)NC(=O)CNC1=O)C(=O)N[C@@H]([C@@H](C)O)C(=O)N1CCC[C@@H]1C(=O)N1C[C@@H](NC(=O)c3ccc(N4CCC(CN5CCN(C[C@H]6OC[C@H](Nc7ccnc(C(F)(F)F)n7)[C@@H](O)[C@H]6O)CC5)CC4)cc3)C[C@H]1C(=O)N[C@@H](CC(=O)O)C(=O)N2	pKd	> 7.00
CC(C)C[C@@H]1NC(=O)[C@H](Cc2cnc[nH]2)NC(=O)[C@H](Cc2c[nH]c3ccccc23)NC(=O)[C@H](C)NC(=O)[C@@H]2CSSC[C@H](NC(=O)[C@H](Cc3c[nH]c4ccccc34)NC(=O)[C@H](C(C)C)NC(=O)[C@H](CC(C)C)NC(=O)[C@H](CCC(=O)O)NC(=O)CNC1=O)C(=O)N[C@@H]([C@@H](C)O)C(=O)N1CCC[C@@H]1C(=O)N1C[C@@H](NC(=O)COCCOCC(=O)NC[C@H]3OC[C@H](Nc4nc(C(F)(F)F)ccc4F)[C@@H](O)[C@H]3O)C[C@H]1C(=O)N[C@@H](CC(=O)O)C(=O)N2	pKd	> 7.00

----------
study.target: IgG
experimental.protocol: IgG SPR binding
measurement.conditions: second table, read-out: IgG KD
pKd: −log10 of the molar value. Positions of bridges follow the written chain, without caps; N, C: chain ends. Non-standard residues stand in square brackets, D forms with d. Residues, ends and D or L forms follow the SMILES beside them. ξ: configuration not given here. ξPro(4-NH2) = NC1CNC(C(=O)O)C1
Reported pKd is given for each of the following compounds.

compound	pKd
CC(C)CC1NC(=O)C(Cc2cnc[nH]2)NC(=O)C(Cc2c[nH]c3ccccc23)NC(=O)C(C)NC(=O)C2CSSCC(NC(=O)C(Cc3c[nH]c4ccccc34)NC(=O)C(C(C)C)NC(=O)C(CC(C)C)NC(=O)C(CCC(=O)O)NC(=O)CNC1=O)C(=O)NC(C(C)O)C(=O)N1CCCC1C(=O)N1CC(NC(=O)COCCOCC(=O)NCC3OCC(Nc4cncc(C(F)(F)F)n4)C(O)C3O)CC1C(=O)NC(CC(=O)O)C(=O)N2 (centres unmarked) [compound 50]	> 7.00
CC(C)C[C@@H]1NC(=O)[C@H](Cc2cnc[nH]2)NC(=O)[C@H](Cc2c[nH]c3ccccc23)NC(=O)[C@H](C)NC(=O)[C@@H]2CSSC[C@H](NC(=O)[C@H](Cc3c[nH]c4ccccc34)NC(=O)[C@H](C(C)C)NC(=O)[C@H](CC(C)C)NC(=O)[C@H](CCC(=O)N(C)C)NC(=O)CNC1=O)C(=O)N[C@@H]([C@@H](C)O)C(=O)N1CCC[C@@H]1C(=O)N1C[C@@H](N)C[C@H]1C(=O)N[C@@H](CC(=O)O)C(=O)N2 [compound 65]	> 7.00
CC(C)C[C@@H]1NC(=O)[C@H](Cc2cnc[nH]2)NC(=O)[C@H](Cc2c[nH]c3ccccc23)NC(=O)[C@H](C)NC(=O)[C@@H]2CSSC[C@H](NC(=O)[C@H](Cc3c[nH]c4ccccc34)NC(=O)[C@H](C(C)C)NC(=O)[C@H](CC(C)C)NC(=O)[C@H](CCC(=O)N(C)C)NC(=O)CNC1=O)C(=O)N[C@@H]([C@@H](C)O)C(=O)N1CCC[C@@H]1C(=O)N1C[C@@H](N)C[C@H]1C(=O)N[C@@H](C)C(=O)N2 [compound 68]	> 7.00
CC(C)CC1NC(=O)C(Cc2cnc[nH]2)NC(=O)C(Cc2c[nH]c3ccccc23)NC(=O)C(C)NC(=O)C2CSSCC(NC(=O)C(Cc3c[nH]c4ccccc34)NC(=O)C(C(C)C)NC(=O)C(CC(C)C)NC(=O)C(CCC(N)=O)NC(=O)CNC1=O)C(=O)NC(C(C)O)C(=O)N1CCCC1C(=O)N1CC(N)CC1C(=O)NC(CC(=O)O)C(=O)N2 (centres unmarked) [compound 60] (cyclo(GQLVWCTP[ξPro(4-NH2)]DCAWHL); disulfide 6-11; configuration not given here)	> 7.00
CC(C)CC1NC(=O)C(Cc2cnc[nH]2)NC(=O)C(Cc2c[nH]c3ccccc23)NC(=O)C(C)NC(=O)C2CSSCC(NC(=O)C(Cc3c[nH]c4ccccc34)NC(=O)C(C(C)C)NC(=O)C(CC(C)C)NC(=O)C(CCC(=O)O)NC(=O)CNC1=O)C(=O)NC(C(C)O)C(=O)N1CCCC1C(=O)N1CC(NC(=O)c3ccc(N4CCC(CN5CCN(CC6OCC(Nc7cncc(C(F)(F)F)n7)C(O)C6O)CC5)CC4)cc3)CC1C(=O)NC(CC(=O)O)C(=O)N2 (centres unmarked) [compound 44]	> 7.00
